Provide the reported Growth inhibition of each item.
- Test system: KB
- procedure summary: Percentage inhibition of growth against KB-C2 cells in the presence of colchicine(0.1 ug/mL) was determined when administered at 3 ug/mL
- Type: functional, Homo sapiens
One number for each entry, in %.

Below, each entry is followed by its recorded Growth inhibition result.
[
  {
    "compound": "CC(C)CC(=O)OC[C@H]1O[C@H](O[C@]2(COC(=O)CC(C)C)O[C@H](COC(=O)CC(C)C)[C@@H](OC(=O)CC(C)C)[C@@H]2OC(=O)CC(C)C)[C@H](OC(=O)CC(C)C)[C@@H](O)[C@@H]1O",
    "observation type": "Growth inhibition",
    "unit descriptor": "%",
    "recorded number": 60
  },
  {
    "compound": "CC(C)CC(=O)OC[C@H]1O[C@@](COC(=O)CC(C)C)(O[C@H]2O[C@H](CO)[C@@H](O)[C@H](O)[C@H]2OC(=O)CC(C)C)[C@@H](OC(=O)CC(C)C)[C@@H]1OC(=O)CC(C)C",
    "observation type": "Growth inhibition",
    "unit descriptor": "%",
    "recorded number": 76
  },
  {
    "compound": "CC(C)CC(=O)OC[C@H]1O[C@@](COC(=O)CC(C)C)(O[C@H]2O[C@H](COC(=O)CC(C)C)[C@@H](OC(=O)CC(C)C)C(OC(=O)CC(C)C)[C@H]2OC(=O)CC(C)C)[C@@H](OC(=O)CC(C)C)[C@@H]1OC(=O)CC(C)C (stereo not given in full)",
    "observation type": "Growth inhibition",
    "unit descriptor": "%",
    "recorded number": 12
  },
  {
    "compound": "CC(C)CC(=O)OC[C@H]1O[C@@](COC(=O)CC(C)C)(O[C@H]2O[C@H](CO)[C@@H](OC(=O)CC(C)C)[C@H](O)[C@H]2OC(=O)CC(C)C)[C@@H](OC(=O)CC(C)C)[C@@H]1OC(=O)CC(C)C",
    "observation type": "Growth inhibition",
    "unit descriptor": "%",
    "recorded number": 79
  }
]

Below: the item to evaluate.
Query: Could you tell me which Growth inhibition is on file for CC(C)CC(=O)OC[C@H]1O[C@@](COC(=O)CC(C)C)(O[C@H]2O[C@H](CO)[C@@H](O)[C@H](OC(=O)CC(C)C)[C@H]2OC(=O)CC(C)C)[C@@H](OC(=O)CC(C)C)[C@@H]1OC(=O)CC(C)C ?
Response: 53

---

Provide the reported Growth inhibition of each item.
- System: KB 3-1
- procedure summary: Cytotoxicity against KB-3-1 cells was determined when administered at 3 ug/mL
- Assay type: functional, Homo sapiens
Answers are plain numbers, in %.

Below, each entry is followed by its recorded Growth inhibition result.
[
  {
    "record smiles": "CC(C)CC(=O)OC[C@H]1O[C@@](COC(=O)CC(C)C)(O[C@H]2O[C@H](CO)[C@@H](O)[C@H](O)[C@H]2OC(=O)CC(C)C)[C@@H](OC(=O)CC(C)C)[C@@H]1OC(=O)CC(C)C",
    "unit descriptor": "%",
    "Growth inhibition": 21
  },
  {
    "record smiles": "CC(C)CC(=O)OC[C@H]1O[C@@](COC(=O)CC(C)C)(O[C@H]2O[C@H](CO)[C@@H](OC(=O)CC(C)C)[C@H](O)[C@H]2OC(=O)CC(C)C)[C@@H](OC(=O)CC(C)C)[C@@H]1OC(=O)CC(C)C",
    "unit descriptor": "%",
    "Growth inhibition": 10
  }
]

Below: the item to evaluate.
Query: Quick check: Growth inhibition on KB 3-1, item CC(C)CC(=O)OC[C@H]1O[C@@](COC(=O)CC(C)C)(O[C@H]2O[C@H](CO)[C@@H](O)[C@H](OC(=O)CC(C)C)[C@H]2OC(=O)CC(C)C)[C@@H](OC(=O)CC(C)C)[C@@H]1OC(=O)CC(C)C ?
Response: 16

---

- Tested on: KB 3-1
- procedure summary: Cytotoxicity against KB-3-1 cells was determined when administered at 1 ug/mL
- Format: functional, Homo sapiens
observation type: Growth inhibition

Below, each entry is followed by its recorded Growth inhibition result.
[
  {
    "record smiles": "CC(C)CC(=O)OC[C@H]1O[C@@](COC(=O)CC(C)C)(O[C@H]2O[C@H](CO)[C@@H](O)[C@H](OC(=O)CC(C)C)[C@H]2OC(=O)CC(C)C)[C@@H](OC(=O)CC(C)C)[C@@H]1OC(=O)CC(C)C",
    "Growth inhibition": "6%"
  },
  {
    "record smiles": "CC(C)CC(=O)O[C@@H]1[C@@H](OC(=O)CC(C)C)[C@@H](O[C@]2(CO)O[C@H](CO)[C@@H](OC(=O)CC(C)C)[C@@H]2OC(=O)CC(C)C)O[C@H](CO)[C@H]1OC(=O)CC(C)C",
    "Growth inhibition": "9%"
  }
]

Below: the item to evaluate.
Query: Could you tell me which Growth inhibition is on file for CC(C)CC(=O)OC[C@H]1O[C@@](COC(=O)CC(C)C)(O[C@H]2O[C@H](CO)[C@@H](O)[C@H](O)[C@H]2OC(=O)CC(C)C)[C@@H](OC(=O)CC(C)C)[C@@H]1OC(=O)CC(C)C ?
Response: 10%

---

Provide the reported Growth inhibition of each item.
- System: KB 3-1
- procedure summary: Cytotoxicity against KB-3-1 cells was determined when administered at 1 ug/mL
- Type: functional, Homo sapiens

[
  {
    "compound": "CC(C)CC(=O)OC[C@H]1O[C@H](O[C@]2(COC(=O)CC(C)C)O[C@H](COC(=O)CC(C)C)[C@@H](OC(=O)CC(C)C)[C@@H]2OC(=O)CC(C)C)[C@H](OC(=O)CC(C)C)[C@@H](O)[C@@H]1O",
    "target of assay": "KB 3-1",
    "Growth inhibition": "18%"
  },
  {
    "compound": "CC(C)CC(=O)OC[C@H]1O[C@@](COC(=O)CC(C)C)(O[C@H]2O[C@H](CO)[C@@H](OC(=O)CC(C)C)[C@H](O)[C@H]2OC(=O)CC(C)C)[C@@H](OC(=O)CC(C)C)[C@@H]1OC(=O)CC(C)C",
    "target of assay": "KB 3-1",
    "Growth inhibition": "2%"
  }
]

Below: the item to evaluate.
Query: Could you tell me which Growth inhibition is on file for CC(C)CC(=O)OC[C@H]1O[C@@](COC(=O)CC(C)C)(O[C@H]2O[C@H](COC(=O)CC(C)C)[C@@H](OC(=O)CC(C)C)C(OC(=O)CC(C)C)[C@H]2OC(=O)CC(C)C)[C@@H](OC(=O)CC(C)C)[C@@H]1OC(=O)CC(C)C (stereo partly drawn) ?
Response: 10%

---

- System: KB 3-1
- procedure summary: Cytotoxicity against KB-3-1 cells was determined when administered at 3 ug/mL
- Type: functional, Homo sapiens
observation type: Growth inhibition (%)
Numbers only, in %.

Below, each entry is followed by its recorded Growth inhibition result.
[
  {
    "compound": "CC(C)CC(=O)OC[C@H]1O[C@@](COC(=O)CC(C)C)(O[C@H]2O[C@H](COC(=O)CC(C)C)[C@@H](OC(=O)CC(C)C)C(OC(=O)CC(C)C)[C@H]2OC(=O)CC(C)C)[C@@H](OC(=O)CC(C)C)[C@@H]1OC(=O)CC(C)C (stereo partly drawn)",
    "recorded number": 15
  },
  {
    "compound": "CC(C)CC(=O)O[C@@H]1[C@@H](OC(=O)CC(C)C)[C@@H](O[C@]2(CO)O[C@H](CO)[C@@H](OC(=O)CC(C)C)[C@@H]2OC(=O)CC(C)C)O[C@H](CO)[C@H]1OC(=O)CC(C)C",
    "recorded number": 8
  }
]

Query: Quick check: Growth inhibition on KB 3-1, item CC(C)CC(=O)OC[C@H]1O[C@H](O[C@]2(COC(=O)CC(C)C)O[C@H](COC(=O)CC(C)C)[C@@H](OC(=O)CC(C)C)[C@@H]2OC(=O)CC(C)C)[C@H](OC(=O)CC(C)C)[C@@H](O)[C@@H]1O ?
Response: 16

Recorded values, source ChEMBL document CHEMBL1134962.
